target: Mitogen-activated protein kinase 1 (Homo sapiens, UniProt P28482); assay: Inhibition of ERK2 (unknown origin)
Sequence (P28482 whole entry): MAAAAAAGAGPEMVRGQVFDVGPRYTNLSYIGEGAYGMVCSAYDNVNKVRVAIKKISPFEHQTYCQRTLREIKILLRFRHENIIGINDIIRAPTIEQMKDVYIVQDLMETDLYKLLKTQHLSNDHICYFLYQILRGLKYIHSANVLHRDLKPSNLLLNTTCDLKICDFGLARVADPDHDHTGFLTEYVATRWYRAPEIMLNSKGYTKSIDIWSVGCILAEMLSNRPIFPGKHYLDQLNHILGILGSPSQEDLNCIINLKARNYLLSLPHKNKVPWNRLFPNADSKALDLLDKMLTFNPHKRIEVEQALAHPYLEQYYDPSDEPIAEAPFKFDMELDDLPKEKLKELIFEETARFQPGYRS
Measured Ki values are reported for all entries that follow.
# number only, unit µM dropped from output

Asked: Consider the compound `Cc1cccn2cc(CN(Cc3nc4ccccc4c(=O)[nH]3)C(C)C)nc12` and give its recorded Ki.
Given back: 1000

Asked: Given `Cc1nc[nH]c1[C@H]1c2nc[nH]c2CCN1Cc1nc2ccccc2[nH]1` , respond with its Ki.
Given back: 1000

Asked: Specify Ki for `Cc1nc[nH]c1[C@@H]1c2nc[nH]c2CCN1Cc1nc2ccccc2[nH]1` and stop.
Given back: 1000
